Origin of the recorded values: the supplement of paper PMC10307832

Tested on: EPLC-272H
experimentNotes: relative viability (nuclei count vs DMSO), 5 days (fraction); higher = more cells survive
measurementParameters: first compound 0.002 µM
propertyName: relative viability

INSERT INTO assay_data (compound, targetundertest, propertyname, endpointresult) VALUES
  ('CC(=O)O[C@@]12CO[C@@H]1C[C@H](O)[C@@]1(C)C(=O)[C@H](O)C3=C(C)[C@@H](OC(=O)[C@H](O)[C@@H](NC(=O)OC(C)(C)C)c4ccccc4)C[C@@](O)([C@@H](OC(=O)c4ccccc4)[C@H]21)C3(C)C [Docetaxel] + CCNC(=O)c1noc(-c2cc(C(C)C)c(O)cc2O)c1-c1ccc(CN2CCOCC2)cc1 [Luminespib] (partner 0.01 µM)', 'EPLC-272H', 'relative viability', 0.205),
  ('CC(=O)O[C@@]12CO[C@@H]1C[C@H](O)[C@@]1(C)C(=O)[C@H](O)C3=C(C)[C@@H](OC(=O)[C@H](O)[C@@H](NC(=O)OC(C)(C)C)c4ccccc4)C[C@@](O)([C@@H](OC(=O)c4ccccc4)[C@H]21)C3(C)C [Docetaxel] + CC(C)C[C@H](NC(=O)[C@H](Cc1ccccc1)NC(=O)c1cnccn1)B(O)O [Bortezomib] (partner 0.002 µM)', 'EPLC-272H', 'relative viability', 0.209),
  ('CC(=O)O[C@@]12CO[C@@H]1C[C@H](O)[C@@]1(C)C(=O)[C@H](O)C3=C(C)[C@@H](OC(=O)[C@H](O)[C@@H](NC(=O)OC(C)(C)C)c4ccccc4)C[C@@](O)([C@@H](OC(=O)c4ccccc4)[C@H]21)C3(C)C [Docetaxel] + Nc1ncn([C@H]2C[C@H](O)[C@@H](CO)O2)c(=O)n1 [Decitabine] (partner 2 µM)', 'EPLC-272H', 'relative viability', 0.179),
  ('CC(=O)O[C@@]12CO[C@@H]1C[C@H](O)[C@@]1(C)C(=O)[C@H](O)C3=C(C)[C@@H](OC(=O)[C@H](O)[C@@H](NC(=O)OC(C)(C)C)c4ccccc4)C[C@@](O)([C@@H](OC(=O)c4ccccc4)[C@H]21)C3(C)C [Docetaxel] + CS(=O)(=O)N1CCN(Cc2cc3nc(-c4cccc5[nH]ncc45)nc(N4CCOCC4)c3s2)CC1 [Pictilisib] (partner 1 µM)', 'EPLC-272H', 'relative viability', 0.161);

###

Property: relative viability; scope: individual molecules
Test system: NCI-H650
experimentNotes: relative viability (nuclei count vs DMSO), 5 days (fraction); higher = more cells survive
measurementParameters: first compound 2.53 µM
propertyName: relative viability

INSERT INTO assay_data (molecule, endpointresult) VALUES
  ('Cc1cnc(-c2cnc(NCCNc3ccc(C#N)cn3)nc2-c2ccc(Cl)cc2Cl)[nH]1 + Cc1nc(NC(=O)N2CCC[C@H]2C(N)=O)sc1-c1ccnc(C(C)(C)C(F)(F)F)c1 [Alpelisib] (partner 2 µM)', 1.11),
  ('O=c1[nH]c2ccccc2n1C1CCN(CCCC(c2ccc(F)cc2)c2ccc(F)cc2)CC1 [Pimozide] + CCNC(=O)c1noc(-c2cc(C(C)C)c(O)cc2O)c1-c1ccc(CN2CCOCC2)cc1 [Luminespib] (partner 0.01 µM)', 0.786),
  ('O=c1[nH]c2ccccc2n1C1CCN(CCCC(c2ccc(F)cc2)c2ccc(F)cc2)CC1 [Pimozide] + CC(C)C[C@H](NC(=O)[C@H](Cc1ccccc1)NC(=O)c1cnccn1)B(O)O [Bortezomib] (partner 0.002 µM)', 0.718),
  ('Cc1cnc(-c2cnc(NCCNc3ccc(C#N)cn3)nc2-c2ccc(Cl)cc2Cl)[nH]1 + O=C(c1cc(Cc2n[nH]c(=O)c3ccccc23)ccc1F)N1CCN(C(=O)C2CC2)CC1 [Olaparib] (partner 8 µM)', 0.393);
